test-target: c-kit WT (Homo sapiens (Human))
Sequence (P10721 26-976): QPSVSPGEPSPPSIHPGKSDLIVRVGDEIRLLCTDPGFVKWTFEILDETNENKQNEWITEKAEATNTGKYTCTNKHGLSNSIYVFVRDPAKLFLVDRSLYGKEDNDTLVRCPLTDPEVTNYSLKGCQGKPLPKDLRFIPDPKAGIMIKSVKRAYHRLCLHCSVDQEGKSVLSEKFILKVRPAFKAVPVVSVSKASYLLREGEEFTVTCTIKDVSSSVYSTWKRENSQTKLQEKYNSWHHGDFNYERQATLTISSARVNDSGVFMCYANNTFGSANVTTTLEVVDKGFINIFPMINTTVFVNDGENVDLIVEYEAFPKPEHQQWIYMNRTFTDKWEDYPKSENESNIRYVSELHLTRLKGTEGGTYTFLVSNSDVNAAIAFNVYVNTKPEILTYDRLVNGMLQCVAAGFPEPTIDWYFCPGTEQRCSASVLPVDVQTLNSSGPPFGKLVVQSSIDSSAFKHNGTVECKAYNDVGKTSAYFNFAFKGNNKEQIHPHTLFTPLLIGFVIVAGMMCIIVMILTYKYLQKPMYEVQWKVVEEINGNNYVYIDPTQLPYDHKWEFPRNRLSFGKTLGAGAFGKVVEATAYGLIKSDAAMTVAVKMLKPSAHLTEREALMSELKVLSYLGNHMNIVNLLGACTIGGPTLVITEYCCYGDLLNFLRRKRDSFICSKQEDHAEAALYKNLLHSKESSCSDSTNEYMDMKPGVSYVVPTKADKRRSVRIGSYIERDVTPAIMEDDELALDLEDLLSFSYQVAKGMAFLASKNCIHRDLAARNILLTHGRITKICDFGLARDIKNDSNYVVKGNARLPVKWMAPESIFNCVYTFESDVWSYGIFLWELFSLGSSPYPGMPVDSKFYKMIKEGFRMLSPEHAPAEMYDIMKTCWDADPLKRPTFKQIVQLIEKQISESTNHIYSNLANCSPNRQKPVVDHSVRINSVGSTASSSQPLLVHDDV
experiment-notes: Proliferation assay (CellTiter-Blue) on BaF3 Kit WT cell line
Format: cell-based
run-parameters: BaF3 Kit WT cell line (murine Ba/F3 expressing Human Kit WT, with murine SCF), 48 hours
pIC50: −log10 of the molar value.
reported-metric: pIC50

**Query** Give the measured pIC50 of Cc1cccc(-c2nc3cc(C)c(Nc4nc(-c5cccnc5)cs4)cc3[nH]2)c1 .
**Result** ≥ 6.00

**Query** Queued: Cc1cc2nc(-c3cccc(Cl)c3)[nH]c2cc1Nc1nc(-c2cccnc2)cs1
**Result** ≥ 6.00

**Query** Queued: Cc1cc2c(cc1Nc1nc(-c3cccnc3)cs1)nc(-c1cccc(N3CCN(C)CC3)c1)n2C
**Result** 5.00 to 6.00

**Query** Queued: Cc1cc2nc(-c3ccc(-n4cccn4)cc3)[nH]c2cc1Nc1nc(-c2cccnc2)cs1
**Result** ≥ 6.00

**Query** Queued: CCn1c(-c2cccc(C(F)(F)F)c2)nc2cc(Nc3nc(-c4cccnc4)cs3)c(C)cc21
**Result** ≥ 6.00

**Query** Queued: C=CS(=O)(=O)Nc1cc(-c2nc3cc(Nc4nc(-c5ccncc5)cs4)c(C)cc3n2C)cc(C(F)(F)F)c1
**Result** 5.00 to 6.00

**Query** Queued: Cc1cc2nc(-c3cccc(Cl)c3)[nH]c2cc1Nc1nc(-c2cncnc2)cs1
**Result** 5.00 to 6.00

// provenance: patent US10202370B2
